System: biotinyl-Phe-oxazolone
procedure-summary: self-aminoacylation, catalytic enhancement (BFO) (fold over background); higher = more active; k-Seq, kA / k0A0; sequences stand for … in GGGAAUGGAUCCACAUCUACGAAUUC…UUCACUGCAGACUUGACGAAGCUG
Variants at the floor of the assay were thinned out.
As shown below, each of these sequences has a reported self-aminoacylation value.
Answer with a bare number; do not write a unit.

AUUACCUUGGUCAUCGAGUGA [Fam2.1 aminoacylation ribozyme variant]: 7.72
AAGUUGGCAAAUAGUCGCAAG [Fam3.1 aminoacylation ribozyme variant]: 2.07
CCACAGUUCAUGCAAUCGGUC [Fam1B.1 aminoacylation ribozyme variant]: 0.779
GUCACCCUGGUCAUCGAGUGA [Fam2.1 aminoacylation ribozyme variant]: 45.7

Shifting focus to the sequence that follows.
State the recorded self-aminoacylation for this entry: AACUUUGCUAAUAGUCGCAUG [Fam3.1 aminoacylation ribozyme variant]
2.98
